Value source: patent US20120178694A1

TEST TARGET: C3 purified from fresh human plasma (human, UniProt P01024 23-1663)
Sequence (P01024 23-1663): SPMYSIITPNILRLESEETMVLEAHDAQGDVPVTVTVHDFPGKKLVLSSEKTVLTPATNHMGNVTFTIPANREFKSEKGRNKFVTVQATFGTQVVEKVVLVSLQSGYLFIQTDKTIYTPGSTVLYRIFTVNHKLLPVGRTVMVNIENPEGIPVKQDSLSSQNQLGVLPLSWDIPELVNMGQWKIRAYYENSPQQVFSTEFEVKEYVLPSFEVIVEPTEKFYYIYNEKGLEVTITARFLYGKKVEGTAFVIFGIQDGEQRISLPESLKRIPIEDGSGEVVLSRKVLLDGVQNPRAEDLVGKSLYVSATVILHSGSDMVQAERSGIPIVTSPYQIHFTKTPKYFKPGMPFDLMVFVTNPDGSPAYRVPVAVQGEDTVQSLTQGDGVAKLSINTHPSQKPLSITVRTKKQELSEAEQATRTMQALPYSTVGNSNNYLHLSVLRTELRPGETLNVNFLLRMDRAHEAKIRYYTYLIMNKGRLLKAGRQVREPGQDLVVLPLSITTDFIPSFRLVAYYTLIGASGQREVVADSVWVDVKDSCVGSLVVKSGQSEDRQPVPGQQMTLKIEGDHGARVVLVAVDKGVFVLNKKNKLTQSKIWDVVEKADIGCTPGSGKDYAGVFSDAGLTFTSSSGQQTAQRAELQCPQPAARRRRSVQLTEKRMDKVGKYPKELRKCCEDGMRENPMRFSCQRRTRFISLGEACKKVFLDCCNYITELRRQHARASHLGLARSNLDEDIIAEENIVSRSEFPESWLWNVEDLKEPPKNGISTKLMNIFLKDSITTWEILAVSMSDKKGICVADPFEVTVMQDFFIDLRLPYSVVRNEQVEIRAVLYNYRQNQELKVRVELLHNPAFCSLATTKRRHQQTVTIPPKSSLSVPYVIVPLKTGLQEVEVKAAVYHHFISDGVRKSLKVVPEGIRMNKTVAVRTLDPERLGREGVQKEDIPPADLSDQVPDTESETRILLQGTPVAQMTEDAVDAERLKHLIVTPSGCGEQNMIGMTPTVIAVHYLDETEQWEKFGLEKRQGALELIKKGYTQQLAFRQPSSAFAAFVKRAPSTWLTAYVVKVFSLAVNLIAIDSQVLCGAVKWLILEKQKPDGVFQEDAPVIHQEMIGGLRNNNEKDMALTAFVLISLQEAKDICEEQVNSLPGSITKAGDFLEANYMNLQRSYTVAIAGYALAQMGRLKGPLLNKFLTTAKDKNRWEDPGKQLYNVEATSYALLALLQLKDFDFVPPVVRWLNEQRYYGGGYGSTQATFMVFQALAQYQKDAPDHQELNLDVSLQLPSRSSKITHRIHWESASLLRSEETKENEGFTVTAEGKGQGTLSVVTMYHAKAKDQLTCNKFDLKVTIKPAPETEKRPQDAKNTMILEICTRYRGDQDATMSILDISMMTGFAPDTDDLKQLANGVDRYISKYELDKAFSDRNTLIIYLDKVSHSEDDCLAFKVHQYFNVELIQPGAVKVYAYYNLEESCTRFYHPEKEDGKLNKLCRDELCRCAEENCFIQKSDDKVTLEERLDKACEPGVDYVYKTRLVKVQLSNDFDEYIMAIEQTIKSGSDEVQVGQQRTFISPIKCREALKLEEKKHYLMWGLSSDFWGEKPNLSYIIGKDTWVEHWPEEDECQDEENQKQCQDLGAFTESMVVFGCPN
PROTOCOL SUMMARY: cell-based or functional assay
Bridge positions count the residues as written; N and C are the ends. Square brackets hold non-standard residues; d marks the D form. Trp(1-Me) = Cn1cc(C[C@H](N)C(=O)O)c2ccccc21; Nle = CCCC[C@H](N)C(=O)O; Sar = CNCC(=O)O
ASSAY METRIC: rP, relative potency compared to peptide 14 (fold)
Only the number, expressed in fold, is required.

Lab note: Ac-ICV[Trp(1-Me)]QDW[Sar]AHRCI-NH2 (disulfide 2-12; SMILES CC[C@H](C)[C@H](NC(=O)[C@@H]1CSSC[C@H](NC(=O)[C@@H](NC(C)=O)[C@@H](C)CC)C(=O)N[C@@H](C(C)C)C(=O)N[C@@H](Cc2cn(C)c3ccccc23)C(=O)N[C@@H](CCC(N)=O)C(=O)N[C@@H](CC(=O)O)C(=O)N[C@@H](Cc2c[nH]c3ccccc23)C(=O)N(C)CC(=O)N[C@@H](C)C(=O)N[C@@H](Cc2c[nH]cn2)C(=O)N[C@@H](CCCNC(=N)N)C(=O)N1)C(N)=O, Sar^8, Ile^13; also called peptide 17; Ac-Ic[CV(1-MeW)QDW(N-MeG)AHRC]I-NH2) [Ac-Ile-c[Cys-Val-Trp(Me)-Gln-Asp-Trp-Sar-Ala-His-Arg-Cys]-Ile-NH2] gave rP, relative potency compared to peptide 14 of 2.2

Lab note: Ac-ICV[Trp(1-Me)]QDW[Sar]AHRC[Nle]-NH2 (disulfide 2-12; SMILES CCCC[C@H](NC(=O)[C@@H]1CSSC[C@H](NC(=O)[C@@H](NC(C)=O)[C@@H](C)CC)C(=O)N[C@@H](C(C)C)C(=O)N[C@@H](Cc2cn(C)c3ccccc23)C(=O)N[C@@H](CCC(N)=O)C(=O)N[C@@H](CC(=O)O)C(=O)N[C@@H](Cc2c[nH]c3ccccc23)C(=O)N(C)CC(=O)N[C@@H](C)C(=O)N[C@@H](Cc2c[nH]cn2)C(=O)N[C@@H](CCCNC(=N)N)C(=O)N1)C(N)=O) [Ac-Ic[CV(1-MeW)QDW(N-MeG)AHRC](Nle)-NH2] gave rP, relative potency compared to peptide 14 of 1.9
